SUBJECT OF TEST: MAGI2_5, Q86UL8
Sequence (Q86UL8 915-1017): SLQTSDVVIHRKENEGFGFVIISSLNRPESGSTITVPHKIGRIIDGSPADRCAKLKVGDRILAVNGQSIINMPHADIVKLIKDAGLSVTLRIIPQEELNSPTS
EXPERIMENT NOTES: holdup assay
Design: key: below the threshold = too weak to quantify, mostly under pKd 3.1 to 4
ASSAY CONDITIONS: plain residues with an end cap or a label only (N-terminal biotin on a linker: ado-ado)
ENDPOINT: pKd

Guide cases for pKd, answers given:
INSERT INTO measurements (binder, endpoint, meas_value) VALUES
  ('GVHSNDHSVV [LPAR1, Q92633]', 'pKd', 'below the threshold'),
  ('LVEEEEPMNL [HDAC7, Q8WUI4]', 'pKd', 'below the threshold'),
  ('AKADAQESRL [PLCB2, Q00722]', 'pKd', 3.59),
  ('TFSRRPKTRV [CD226, Q15762]', 'pKd', 'below the threshold'),
  ('VISSDDLTEL [CAPN6, Q9Y6Q1]', 'pKd', 3.53);

Would you mind listing pKd for each of the following binders?
1. PGKKPEDSRV [SLCO2B1, O94956]
2. PAALPESTHM [SLC9A3, P48764]
3. SAGADSETHC [SLCO1B1, Q9Y6L6]
4. KIEDVEITLV [FCHSD2, O94868]
5. EAVTVESTSL [SLC22A11, Q9NSA0]
6. FLVTEFNVML [DFNB31, Q9P202]
7. DSEEELPTRL [GRK6, P43250]
8. HLSTRQGTCV [ATRNL1, Q5VV63]

OUT:
1. below the threshold
2. below the threshold
3. below the threshold
4. 5.47
5. 4.45
6. below the threshold
7. below the threshold
8. 4.04
